Measured values drawn from patent US20170217976A1 for this set.

Recorded measurements of log10(Ki), one per entry
System Under Test: KOR (Cavia porcellus, UniProt P41144)
Construct: from tissue
Sequence (P41144 whole entry): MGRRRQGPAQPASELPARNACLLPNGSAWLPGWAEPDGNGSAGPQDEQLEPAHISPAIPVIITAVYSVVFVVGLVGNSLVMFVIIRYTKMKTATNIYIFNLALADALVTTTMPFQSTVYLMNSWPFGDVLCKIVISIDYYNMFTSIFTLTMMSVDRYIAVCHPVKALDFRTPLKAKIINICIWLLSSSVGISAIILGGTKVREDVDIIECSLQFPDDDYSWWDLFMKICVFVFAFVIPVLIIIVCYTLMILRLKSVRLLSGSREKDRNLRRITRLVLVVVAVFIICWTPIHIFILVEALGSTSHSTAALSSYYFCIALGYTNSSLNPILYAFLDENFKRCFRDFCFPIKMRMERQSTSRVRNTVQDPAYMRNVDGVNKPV
Test: Opioid receptor binding, KOR, guinea pig brain membranes
Measurement Context: Binding Ki KOR, Table 2-6, guinea pig brain membranes
Quantity Kind: log10(Ki) (log10 of the value in nM)

>  <Compound>
CCO[C@@]12CC[C@@H](N[C@@H](Cc3ccccc3)C(=O)OC(C)(C)C)[C@@H]3Oc4c(O)ccc5c4[C@@]31CCN(CC1CC1)[C@@H]2C5 [56-tBu ester]

>  <log10(Ki)>
1.25

$$$$
>  <Compound>
CO[C@@]12CC[C@@H](NCCCC(=O)O)[C@@H]3Oc4c(O)ccc5c4[C@@]31CCN(CC1CC1)[C@@H]2C5 [Compound 66]

>  <log10(Ki)>
1.23

$$$$
>  <Compound>
CC[C@H](C)[C@H](N[C@@H]1CC[C@@]2(OC)[C@H]3Cc4ccc(O)c5c4[C@@]2(CCN3CC2CC2)[C@H]1O5)C(=O)OC(C)(C)C [78-tBu ester]

>  <log10(Ki)>
0.75

$$$$
>  <Compound>
CO[C@@]12CC[C@@H](NCCC(=O)O)[C@@H]3Oc4c(O)ccc5c4[C@@]31CCN(CC1CC1)[C@@H]2C5 [Compound 64]

>  <log10(Ki)>
1.07

$$$$
>  <Compound>
CO[C@@]12CC[C@H](N[C@@H](CC(C)C)C(=O)OC(C)(C)C)[C@@H]3Oc4c(O)ccc5c4[C@@]31CCN(CC1CC1)[C@@H]2C5 [76-tBu ester]

>  <log10(Ki)>
-0.10

$$$$
>  <Compound>
CO[C@@]12CC[C@H](NCCC(=O)O)[C@@H]3Oc4c(O)ccc5c4[C@@]31CCN(CC1CC1)[C@@H]2C5 [Compound 63]

>  <log10(Ki)>
0.89

$$$$

---

System Under Test: human MOP expressed in CHO cells (Homo sapiens, UniProt P35372)
Construct: expressed in transfected cells; host or cells: CHO cells (per the unit's head)
Sequence (P35372 whole entry): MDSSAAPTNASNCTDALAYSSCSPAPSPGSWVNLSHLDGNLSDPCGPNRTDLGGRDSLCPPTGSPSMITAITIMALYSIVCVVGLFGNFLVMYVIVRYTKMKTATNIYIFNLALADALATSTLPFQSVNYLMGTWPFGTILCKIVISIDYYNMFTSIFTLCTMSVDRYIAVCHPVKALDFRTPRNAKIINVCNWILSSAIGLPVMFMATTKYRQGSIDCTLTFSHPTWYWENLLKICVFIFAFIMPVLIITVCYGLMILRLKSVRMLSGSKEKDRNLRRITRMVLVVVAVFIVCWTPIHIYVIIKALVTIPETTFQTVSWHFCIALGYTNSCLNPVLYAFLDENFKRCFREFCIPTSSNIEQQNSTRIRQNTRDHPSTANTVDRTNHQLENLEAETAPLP
Test: [35S]GTPγS binding, antagonism at MOR (Ke against DAMGO)
Assay type: biochemical
Measurement Context: [35S]GTPγS binding, MOR Ke, Table 1-6, antagonist Ke measured against DAMGO

>  <Molecule>
O=C(O)C(Cc1ccccc1)NC1CCC2(O)C3Cc4ccc(O)c5c4C2(CCN3CC2CC2)C1O5 (single isomer, unassigned) [Compound 60]

>  <Kb (nM)>
0.24

$$$$
>  <Molecule>
O=C(O)C(Cc1ccccc1)NC1CCC2(O)C3Cc4ccc(O)c5c4C2(CCN3CC2CC2)C1O5 (single isomer, unassigned) [Compound 59]

>  <Kb (nM)>
0.25

$$$$
>  <Molecule>
CCO[C@@]12CCC(=O)[C@@H]3Oc4c(O)ccc5c4[C@@]31CCN(CC1CC1)[C@@H]2C5 [Compound 14-OEt-NTX, 14-O-Ethylnaltrexone, reference compound]

>  <Kb (nM)>
0.31

$$$$
>  <Molecule>
CO[C@@]12CC[C@@H](NCCC(=O)O)[C@@H]3Oc4c(O)ccc5c4[C@@]31CCN(CC1CC1)[C@@H]2C5 [Compound 64]

>  <Kb (nM)>
0.96

$$$$
>  <Molecule>
CO[C@@]12CC[C@H](NCC(=O)O)[C@@H]3Oc4c(O)ccc5c4[C@@]31CCN(CC1CC1)[C@@H]2C5 [Compound 61]

>  <Kb (nM)>
0.63

$$$$

---

Recorded measurements of pKi, one per entry
System Under Test: MOR (Rattus norvegicus)
Construct: from tissue
Sequence (P33535 whole entry): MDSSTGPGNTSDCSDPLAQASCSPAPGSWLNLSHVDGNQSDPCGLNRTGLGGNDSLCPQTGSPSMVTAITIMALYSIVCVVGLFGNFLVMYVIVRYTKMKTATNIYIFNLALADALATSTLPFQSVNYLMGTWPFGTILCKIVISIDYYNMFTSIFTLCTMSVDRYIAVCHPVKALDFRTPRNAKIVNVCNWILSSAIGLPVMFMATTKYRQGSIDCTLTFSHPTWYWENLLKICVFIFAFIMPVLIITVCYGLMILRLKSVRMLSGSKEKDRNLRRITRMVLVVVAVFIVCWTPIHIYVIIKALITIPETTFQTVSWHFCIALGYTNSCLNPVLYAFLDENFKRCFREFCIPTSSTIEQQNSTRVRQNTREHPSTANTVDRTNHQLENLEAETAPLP
Test: Opioid receptor binding, MOR, rat brain membranes
Measurement Context: Binding Ki MOR, Table 2-6, rat brain membranes
pKi: −log10 of the molar value.

>  <Compound>
CO[C@@]12CCC(=O)[C@@H]3Oc4c(O)ccc5c4[C@@]31CCN(CC1CC1)[C@@H]2C5 [Compound 14-OMe-NTX, 14-O-Methylnaltrexone, reference compound]

>  <pKi>
9.34

$$$$
>  <Compound>
COC12CCC(NC(CCC(=O)O)C(=O)O)C3Oc4c(O)ccc5c4C31CCN(CC1CC1)C2C5 (stereo not drawn) [Compound 74]

>  <pKi>
8.71

$$$$
>  <Compound>
COC12CCC(NC(C(=O)O)C(C)C)C3Oc4c(O)ccc5c4C31CCN(CC1CC1)C2C5 (single isomer, unassigned) [Compound 68]

>  <pKi>
9.36

$$$$

---

System Under Test: DOR (Rattus norvegicus, UniProt P33533)
Construct: from tissue
Sequence (P33533 whole entry): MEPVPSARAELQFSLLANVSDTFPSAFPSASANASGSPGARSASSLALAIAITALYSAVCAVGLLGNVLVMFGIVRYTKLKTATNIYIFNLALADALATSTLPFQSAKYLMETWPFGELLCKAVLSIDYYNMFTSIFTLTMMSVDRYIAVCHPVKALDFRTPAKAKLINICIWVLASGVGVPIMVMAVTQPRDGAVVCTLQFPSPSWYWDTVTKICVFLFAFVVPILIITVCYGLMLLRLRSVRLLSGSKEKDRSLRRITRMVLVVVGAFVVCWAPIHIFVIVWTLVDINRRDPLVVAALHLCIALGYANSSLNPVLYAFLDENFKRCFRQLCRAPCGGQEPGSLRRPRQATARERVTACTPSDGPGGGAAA
Test: Opioid receptor binding, DOR, rat brain membranes
Measurement Context: in vitro binding assay, rat brain membranes; read-out: Binding Ki (nM) DOR
Rule: measured Ki below 2 nM gets 1; anything equal to or greater than 2 nM gets 0.

>  <Compound>
CO[C@@]12CC[C@@H](N[C@@H](Cc3ccccc3)C(=O)OC(C)(C)C)[C@@H]3Oc4c(O)ccc5c4[C@@]31CCN(C)[C@@H]2C5 [4-t-Bu ester]

>  <System Under Test>
DOR (Rattus norvegicus, UniProt P33533)

>  <Assigned Label>
0

$$$$
>  <Compound>
CO[C@@]12CC[C@@H](N[C@@H](Cc3ccc(O)cc3)C(=O)OC(C)(C)C)[C@@H]3Oc4c(O)ccc5c4[C@@]31CCN(C)[C@@H]2C5 [10-t-Bu ester]

>  <System Under Test>
DOR (Rattus norvegicus, UniProt P33533)

>  <Assigned Label>
1

$$$$
>  <Compound>
CO[C@@]12CC[C@H](N[C@H](C(=O)N[C@@H](Cc3ccc(O)cc3)C(=O)OC(C)(C)C)C(C)C)[C@@H]3Oc4c(O)ccc5c4[C@@]31CCN(C)[C@@H]2C5 [32-t-Bu ester]

>  <System Under Test>
DOR (Rattus norvegicus, UniProt P33533)

>  <Assigned Label>
1

$$$$
>  <Compound>
CO[C@@]12CC[C@@H](NCC(=O)OC(C)(C)C)[C@@H]3Oc4c(O)ccc5c4[C@@]31CCN(C)[C@@H]2C5 [HS731-t-Bu ester]

>  <System Under Test>
DOR (Rattus norvegicus, UniProt P33533)

>  <Assigned Label>
1

$$$$
>  <Compound>
CO[C@@]12CC[C@@H](N[C@@H](CCCCN)C(=O)O)[C@@H]3Oc4c(O)ccc5c4[C@@]31CCN(C)[C@@H]2C5 [Compound 39]

>  <System Under Test>
DOR (Rattus norvegicus, UniProt P33533)

>  <Assigned Label>
0

$$$$
>  <Compound>
CO[C@@]12CC[C@H](N[C@H](C(=O)OC(C)(C)C)C(C)C)[C@@H]3Oc4c(O)ccc5c4[C@@]31CCN(C)[C@@H]2C5 [28-t-Bu ester]

>  <System Under Test>
DOR (Rattus norvegicus, UniProt P33533)

>  <Assigned Label>
1

$$$$

---

System Under Test: MOR (Rattus norvegicus)
Construct: from tissue
Test: Opioid receptor binding, MOR, rat brain membranes
Measurement Context: Binding Ki MOR, Table 1-6, rat brain membranes
Recorded measurements of Ki, one per entry
Quantity Kind: Ki (nM)

>  <Compound>
COC12CCC(NC(C(=O)O)C(C)C)C3Oc4c(O)ccc5c4C31CCN(CC1CC1)C2C5 (single isomer, unassigned) [Compound 69]

>  <Quantitative Result>
0.66

$$$$
>  <Compound>
CO[C@@]12CC[C@@H](NCCCC(=O)O)[C@@H]3Oc4c(O)ccc5c4[C@@]31CCN(CC1CC1)[C@@H]2C5 [Compound 66]

>  <Quantitative Result>
3.36

$$$$
>  <Compound>
COC12CCC(NC(C(=O)O)C(C)C)C3Oc4c(O)ccc5c4C31CCN(CC1CC1)C2C5 (single isomer, unassigned) [Compound 68]

>  <Quantitative Result>
0.44

$$$$
>  <Compound>
CO[C@@]12CC[C@@H](NCCC(=O)O)[C@@H]3Oc4c(O)ccc5c4[C@@]31CCN(CC1CC1)[C@@H]2C5 [Compound 64]

>  <Quantitative Result>
1.51

$$$$
>  <Compound>
CO[C@@]12CC[C@H](NCC(=O)O)[C@@H]3Oc4c(O)ccc5c4[C@@]31CCN(CC1CC1)[C@@H]2C5 [Compound 61]

>  <Quantitative Result>
0.68

$$$$
>  <Compound>
CC[C@H](N[C@@H]1CC[C@@]2(OC)[C@H]3Cc4ccc(O)c5c4[C@@]2(CCN3CC2CC2)[C@H]1O5)C(=O)O [Compound 79]

>  <Quantitative Result>
3.39

$$$$
>  <Compound>
O=C(O)C(Cc1ccccc1)NC1CCC2(O)C3Cc4ccc(O)c5c4C2(CCN3CC2CC2)C1O5 (single isomer, unassigned) [Compound 60]

>  <Quantitative Result>
1.83

$$$$
>  <Compound>
COC12CCC(NC(C(=O)O)C(C)C)C3Oc4c(O)ccc5c4C31CCN(CC1CC1)C2C5 (single isomer, unassigned) [Compound 71]

>  <Quantitative Result>
1.52

$$$$
>  <Compound>
O=C(O)C(Cc1ccccc1)NC1CCC2(O)C3Cc4ccc(O)c5c4C2(CCN3CC2CC2)C1O5 (single isomer, unassigned) [Compound 59]

>  <Quantitative Result>
1.41

$$$$
>  <Compound>
CO[C@@]12CCC(=O)[C@@H]3Oc4c(O)ccc5c4[C@@]31CCN(CC1CC1)[C@@H]2C5 [Compound 14-OMe-NTX, 14-O-Methylnaltrexone, reference compound]

>  <Quantitative Result>
0.46

$$$$
>  <Compound>
CCO[C@@]12CCC(=O)[C@@H]3Oc4c(O)ccc5c4[C@@]31CCN(CC1CC1)[C@@H]2C5 [Compound 14-OEt-NTX, 14-O-Ethylnaltrexone, reference compound]

>  <Quantitative Result>
0.35

$$$$
>  <Compound>
COC12CCC(NC(C(=O)O)C(C)C)C3Oc4c(O)ccc5c4C31CCN(CC1CC1)C2C5 (single isomer, unassigned) [Compound 70]

>  <Quantitative Result>
0.62

$$$$
